Test: yeast display, Sf9 membrane polyspecificity reagent, FACS + sequencing; frameworks hold sequencing errors
metric name: polyreactivity (PSR sort gate)

Below, each entry is followed by its recorded polyreactivity (PSR sort gate) result.
QVQLVESGGGLVQAGGSLRLSCAASASINSNYVMGWNRQAPGKERELVAAITRRGGRTYYADSVKGRFTISRDNAKNTVYLQMNSLKPEDTAVYYCAAERYPEAGSPYGTAEMDYWGQGTQVPVSS
low polyreactivity
QVQLLESGGGLVQAGASLRLSCAASGSICWVYDMGWYRQAPGKERELVAAISQSGGSTYYADSVKGRFTISRDNAKNTVYFQMNSLKPEDTAGYYCAAYVRGQNYDYWGQGTQVTVSS
high polyreactivity
QDQLVESGGGLVQAGGSLRLSCAASGRTFVTYAMGWYRQAPGKEREFVAAITWSTGTSTYYADSVKGRFTISRDNAKNTVYLQMNSLKPEDTAGYYCAAYYVVHFGYWGQGTQVTVSS
low polyreactivity
QVQLVESGGGLVQAGGSLRLSCAASGLIFYRYAMGWYRQAPGTEREMVAAITTNGARTYYADSVKGRFTISRDNAKNTVYLEMNSLKPEDTAVYYCAAYGAGKFWADHNYWGQGTQVTVSS
high polyreactivity
QVQLVESGGGLVQAGGSLRLSCAASGRIFLSNGMGWYRHAPGKERELVAGITTGGGDSTYYADSVKGRFTISRDNAKHTVYLQMNSLKPEDTAVYYCNADSVYAGFDYWGQGPQVTVSS
low polyreactivity

Challenge: I am curious: what polyreactivity (PSR sort gate) value has been reported for QVQLVESGGGLVQAGGSLRLSCAASGSTFDVYAKGWYRQAPGKEWELVAAISRSGGSTYYADSVKGRFTISRDNAKNTVYLQMNSLKPEDTAVYYCNPRLARWGSDEYNYWGQGTQETVSS ?
Response given: low polyreactivity

Challenge: Would you mind doing QVQLVESGGGLVQAGGSLRLSCAASGSTFKKYAMGWYRQAPGKERELVAAITGSGGRTYYADSVKGRFTISRDTAKNTVYLQMNSLKPEDTAVYYCANLNNYGYDYWGQGTQVTVSS as well?
Response given: high polyreactivity

Challenge: Would you mind doing QVQLVESGGGLVQAGGSLRLSCAASGRTFVANAMGWYRQAPGKERELVAAISSSGGSTYYADSVKGRFTISRDNAKNTVYLQMNSLKPEDTAVYYCNRVGVYYRLYPYYYWGQGTQVTVSS as well?
Response given: high polyreactivity

Challenge: Would you mind doing QVQLVESGGGLVQAGGSLRLSCAASGSIFNGNARGWYRQAPGKERELVAAITRRGGRTYYADSVKGRFTISRDNEKNTVYLQMNSLQPEDTAFYYCATPVDYKTGYYYWVQGTQVTVSS as well?
Response given: high polyreactivity

Challenge: Would you mind doing QVQLVESGGGLVQAGGSLRLSCAASGRIFIRNAMGWYRQAPGKERELVAAITQSGGSTYYADSVKGRFTISRDNAKNTVYLQMNSLKPEDTAVYYCAADGDNPYLHEEDYWGQGTQVTVSS as well?
Response given: high polyreactivity

Challenge: Would you mind doing QVQLVESGGGLVQAGGSLRLSCAASGRIFPYMGWYRQAPGKERELVAAISSRGGNTYYADSVKGRFTISRDNAKNTVYLQMNSLKPEDTAVYYCNKVKYTWYDWGQGTQVTVSS as well?
Response given: high polyreactivity
